# target-of-assay: coagulation factor Xa (FXa) (UniProt P00742;P00742 P00742:41-179,P00742:235-488)
# Sequence (P00742 41-179, chain 1 of 2): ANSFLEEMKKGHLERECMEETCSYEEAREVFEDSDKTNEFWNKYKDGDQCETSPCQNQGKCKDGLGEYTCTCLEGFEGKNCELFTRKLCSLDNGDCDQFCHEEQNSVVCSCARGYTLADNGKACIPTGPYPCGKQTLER
# Sequence (P00742 235-488, chain 2 of 2): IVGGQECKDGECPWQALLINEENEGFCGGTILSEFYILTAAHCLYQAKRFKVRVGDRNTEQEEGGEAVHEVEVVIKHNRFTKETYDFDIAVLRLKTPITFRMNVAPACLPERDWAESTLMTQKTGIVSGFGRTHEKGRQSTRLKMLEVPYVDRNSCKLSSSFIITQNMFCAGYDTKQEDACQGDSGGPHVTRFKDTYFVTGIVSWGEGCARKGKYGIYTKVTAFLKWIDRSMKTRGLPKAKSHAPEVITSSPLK
pKd: −log10 of the molar value.
// label = t if pKd is not less than 8, otherwise f

Here are 2 binders together with their reported answers.
Identify whether the reported pKd of the following binder is 8 or greater: D7-6 (ssRNA) RNA: GGGAGAGAGGAAGAGGGAUGGGAAAAUAGCCCCAGCGAGAUAAUACUUGGCCCCGCUAGCACCAUAACCCAGAGGUCGAU
t

Given E9-9 (ssRNA) RNA: GGGAGAGAGGAAGAGGGAUGGGCCAGAACACCAGUGAACCCCCCAGCCCCUUCUCACCAGAUCAUAACCCAGAGGUCGAU , state whether its pKd is at least 8.
f

Further cases:
Is it the case that F11-8 (ssRNA) RNA: GGGAGAGAGGAAGAGGGAUGGGAGAUUAGCCCCAGCGAGAUAAUACUUGGCCCCGCUACUACCAUAACCCAGAGGUCGAU has pKd reaching or exceeding 8?
t

Quick check, pKd >= 8? E10-8 (ssRNA) RNA: GGGAGAGAGGAAGAGGGAUGGGCCAAAAGCGGACUGAAGACGUGUUUCCCCCAUCUCCGUGACAUAACCCAGAGGUCGAU
f

Is pKd at least 8? Consider D4-2 (ssRNA) RNA: GGGAGAGAGGAAGAGGGAUGGGAACUUAGCCUCAGCGAGAUAACGCUUGGCCCCGCUAAGACCAUAACCCAGAGGUCGAU
f

Does the binder E9-5 (ssRNA) RNA: GGGAGAGAGGAAGAGGGAUGGGCCAGAAGCGACACUAACGCUGAACCCCCCAGUCCCUUCACGUGCAUAACCCAGAGGUCGAU have recorded pKd that is 8 or more?
f
